Measured EC50 values are reported for all entries that follow.
- Test system: HUVEC
- ASSAY_OVERVIEW: Antiangiogenic activity in HUVEC assessed as suppression of tube formation after 24 hrs by hematoxylin staining analysis
- Assay type: functional, cell-based
- CONDITION_INFO: Homo sapiens
State just the number; it will be interpreted in µM.

                smiles_data  reported_property  measured_number
0  C#CCNC(=O)Nc1cccc(CCl)c1               EC50             0.26

Attention now shifts to the item below.
Problem: # EC50 lookup, item C#CCNC(=O)Nc1cccc(COc2ccc(C(=O)OC)cc2)c1
Solution: 17.5
